Growth Rate listing for selected molecules.
Test system: U2OS
Assay: Incucyte cell viability with U2OS; also: unitless GR value; below 1 slowed growth and below 0 cell loss
Format: toxicity, cell-based
Conditions: human, 0 h, 10 µM, compound concentration 10 uM, replicate number 2, timepoint 0 hours

Please provide the recorded Growth Rate for `Cc1cc(-c2ccc3c(c2)CC[C@H]3N2CC3(CCN(C(=O)Cc4cn5cc(C)sc5n4)CC3)C2)ncn1` , tested on U2OS.
-0.98

Short answer please: Growth Rate, U2OS, entry `Cc1cc(CN)cc(C)c1-c1ncn(C)c1-c1ccnc2cc(F)ccc12`
-0.67

State its Growth Rate on U2OS: `COc1cc(OC)cc(C(=O)NNC(=O)Nc2cccc3ccccc23)c1`
-1

Please examine the following record next.
Request body: readout Growth Rate, system U2OS, query `COc1ccc2c(c1OCc1ccccc1)C[C@@H](C(=O)O)N(C(=O)C(c1ccccc1)c1ccccc1)C2` . Return the value.
-1

###

System: Fibroblast
Assay: Incucyte cell viability with human fibroblast; also: unitless GR value; below 1 slowed growth and below 0 cell loss
Format: toxicity, cell-based
Details: 0 h, 10 µM, compound concentration 10 uM, replicate number 1, timepoint 0 hours
# Growth Rate values compiled below

The cases that follow already have their Growth Rate on record.
Bench note: what Growth Rate did `CNc1nc(NCc2ncccn2)c2c(-c3ccc4ncccc4c3)c[nH]c2n1` show?
0.14

Tell me the measured Growth Rate of `Cc1cc(C)cc(C(=O)NOCCCCCC(=O)NO)c1` , please.
-0.03

Param item = OCc1cc(C(O)CNCCCCCCOCCCCc2ccccc2)ccc1O (stereo not given) ; retrieve measured Growth Rate.
0.1

I would be grateful if you could share the reported Growth Rate for `C=CCN1C[C@H](C(=O)N(CCCN(C)C)C(=O)NCC)C[C@@H]2c3cccc4[nH]cc(c34)C[C@H]21` .
-0.05

Form field: reported Growth Rate of `COc1ccccc1N1CCN(CCCCNC(=O)c2ccc3ccccc3c2)CC1.Cl`
0.79

Which Growth Rate value is on record for `O=C(O)c1n[nH]c2c1C[C@H]1C[C@@H]21` ?
0.67

What value of Growth Rate has been reported for the following compound? `O=C1NC(=Nc2c(Cl)cccc2Cl)S/C1=C\c1ccc2nccnc2c1`
0.9

Which Growth Rate value is on record for `CC1(COc2ccc3c(c2)ncn3-c2ccc3cccc(N4CCC(N)CC4)c3n2)COC1` ?
-0.8

Requested field: Growth Rate. Item: `Cc1[nH]cnc1CN1CCc2c(c3ccccc3n2C)C1=O`
0.35

Field request: Growth Rate | item: `CCc1cc2cc(NS(=O)(=O)c3ccc(C#N)cc3)ccc2n(CC)c1=O`
0.94

Further cases:
Entry `S=C(NCCCc1c[nH]cn1)NCCCN(Cc1ccc(Cl)c(Cl)c1)c1ccc(Br)cn1` has what Growth Rate?
0.28

###

System: Fibroblast
Assay: Incucyte cell viability with human fibroblast; also: unitless GR value; below 1 slowed growth and below 0 cell loss
Type: toxicity, cell-based
Details: 18 h, 10 µM, compound concentration 10 uM, replicate number 2, timepoint 18 hours
Lab note: compare Growth Rate against 0.04. Equal or greater, write satisfied. Smaller, write not satisfied.

Observe how each entry below is paired with its result.
Identify whether the reported Growth Rate of the following compound is 0.04 or greater: `O=C(NC[C@@H]1[C@H]2CN(C(=O)OCc3cc(C(F)(F)F)cc(C(F)(F)F)c3)C[C@@H]12)c1ccc2[nH]nnc2c1`
satisfied

Dear colleague, could you confirm whether `N[C@@H]1c2cccnc2[C@H](OC(=O)N2CCC(n3c(=O)[nH]c4ncccc43)CC2)CC[C@H]1c1cccc(F)c1F` has Growth Rate at or above 0.04?
satisfied

Would you say `O=C(NCCO)c1cccc(-c2cc(Nc3ccc(OC(F)(F)F)cc3)ncn2)c1` shows Growth Rate at minimum 0.04?
not satisfied

Decide: is the reported value of Growth Rate for `Cc1ccccc1-c1cc(N2CCN(C)CC2)ncc1N(C)C(=O)C(C)(C)c1cc(C(F)(F)F)cc(C(F)(F)F)c1` equal to or greater than 0.04?
satisfied

API: above_or_equal(metric=Growth Rate, cutoff=0.04) for item Cc1ccc(OCC(O)C(C)NC(C)C)c2c1CCC2.Cl (configuration not stated)
satisfied

***
Reported Growth Rate reaches at least 0.04 for `O=C1[C@H](Cc2ccc(O)cc2)N2C(=O)CCN(C(=O)NCc3ccccc3)[C@H]2CN1Cc1cccc2ccccc12` ?
not satisfied
